Source listed as patent US12065434B2.

# ASSAY: Metabolite profiling of pooled human plasma after repeat oral dosing of Compound 1 (HPLC/UV/MS)
# CONDITION: Compound 1 120 mg BID, Day 28
MEASURED ENDPOINT: observed as major or minor metabolite in human plasma

1. N#Cc1ccc(COc2cccc(C3CCN(Cc4nc5ccc(C(=O)O[C@@H]6O[C@H](C(=O)O)[C@@H](O)[C@H](O)[C@H]6O)cc5n4C[C@@H]4CCO4)CC3)n2)c(F)c1 = minor metabolite
2. N#Cc1ccc(COc2cccc(C3CCN(Cc4nc5ccc(C(=O)O)cc5n4CC(O)CCO)CC3)n2)c(F)c1 (centres unmarked) [Compound 574b] = minor metabolite
3. N#Cc1ccc(COc2cccc(C(CCO)CCNCc3nc4ccc(C(=O)O)cc4n3C[C@@H]3CCO3)n2)c(F)c1 (some centres unmarked) [Compound 574a] = minor metabolite
4. N#Cc1ccc(COc2cccc(C3CCNCC3)n2)c(F)c1 = minor metabolite

====

# Test system: rabbit hepatocytes
# ASSAY: In vitro metabolism of Compound 2 in rabbit cryopreserved hepatocytes
# Type: in vitro ADME
# Parameters: key: ND Not detected.; trace: Trace: observed by HPLC/MS measurements only.; + Minor as assessed by HPLC/UV measurements; ++ moderate as assessed by HPLC/UV measurements; +++ major as assessed by HPLC/UV measurements.; * m/z 593 and m/z 505 co-eluted in rabbit hepatocytes.; ** m/z 591 c and m/z 593 were merged in human hepatocytes and Hepatopack.; *** m/z 607 and m/z 751 b were merged in rabbit hepatocytes
# CONDITION: rabbit cryopreserved hepatocytes; HPLC/UV/MS
MEASURED ENDPOINT: Relative abundance of metabolite of Compound 2, Rabbit

1) C[C@]1(c2ccc(Cl)cn2)Oc2cccc(C3CCN(Cc4nc5ccc(C(=O)O)cc5n4CC(O)CCO)CC3)c2O1 (stereo in doubt) [Metabolite 593] = +++
2) C[C@]1(c2ccc(Cl)cn2)Oc2cccc(C3CCN(Cc4nc5ccc(C(=O)O)cc5[nH]4)CC3)c2O1 [Metabolite 505] = *
3) C[C@]1(c2ccc(Cl)cn2)Oc2cccc(-c3cc[n+](Cc4nc5ccc(C(=O)O)cc5n4C[C@@H]4CCO4)cc3)c2O1 [Metabolite 569] = +
4) C[C@]1(c2ccc(Cl)cn2)Oc2cccc(C3CCNCC3)c2O1 [Metabolite 331] = trace

====

# ASSAY: Metabolite profiling of pooled human plasma after repeat oral dosing of Compound 1 (HPLC/UV/MS)
# CONDITION: Compound 1 120 mg oral BID, Day 28, HPLC/UV/MS
MEASURED ENDPOINT: Plasma Extracts

Use these answered entries as a reference point.
1. N#Cc1ccc(COc2cccc(C3CCN(Cc4nc5ccc(C(=O)O)cc5n4CC(O)CCO)CC3)n2)c(F)c1 (stereo not shown) [Compound 574b] = +
2. O=C(O)c1ccc2nc(CN3CCC(c4cccc(=O)[nH]4)CC3)n(C[C@@H]3CCO3)c2c1 [Compound M2] = +++
3. N#Cc1ccc(COc2cccc(C3CCNCC3)n2)c(F)c1 [Compound M3] = +
4. N#Cc1ccc(COc2cccc(C3(O)CCN(Cc4nc5ccc(C(=O)O)cc5n4C[C@@H]4CCO4)CC3)n2)c(F)c1 [Compound M4] = +
5. N#Cc1ccc(COc2cccc(C3CCN(Cc4nc5ccc(C(=O)O[C@@H]6O[C@H](C(=O)O)[C@@H](O)[C@H](O)[C@H]6O)cc5n4C[C@@H]4CCO4)CC3)n2)c(F)c1 [Compound M1] = +
6. N#Cc1ccc(COc2cccc(C(CCO)CCNCc3nc4ccc(C(=O)O)cc4n3C[C@@H]3CCO3)n2)c(F)c1 (stereo partly shown) [Compound 574a] = +

Read the next record carefully.
Return Plasma Extracts (reported value) for this molecule: N#Cc1ccc(COc2cccc(C3CCN(Cc4nc5ccc(C(=O)O)cc5n4C[C@@H]4CCO4)CC3)n2)c(F)c1 [Compound 1] +++
